Test system: A549
Assay info: Cytotoxicity against human A549 cells by SRB assay
Assay type: functional, cell-based
Property measured: pIC50
On this scale, pIC50 is minus log10 of a concentration expressed in M (mol/L).

Q) Give the reported value of pIC50 for this record: C[C@@]12CCC[C@@](C)(C(=O)O)[C@H]1[C@H](O)[C@H](O)[C@@]13C[C@H](CC[C@@H]21)[C@](O)(CO[C@@H]1O[C@H](CO)[C@@H](O)[C@H](O)[C@H]1O)C3 [PHARBOSIDE E]
A) 4.63

New cases:
Q) Using the record for C[C@@]12CCC[C@@](C)(C(=O)O[C@@H]3O[C@H](CO)[C@@H](O)[C@H](O)[C@H]3O)[C@H]1[C@H](O)[C@H](O)[C@@]13C[C@H](CC[C@@H]21)[C@](O)(CO)C3 [PHARBOSIDE D] , state its measured pIC50.
A) 4.60
